Just for reference, patent US10858316B2 is where these values come from.

Overview of recorded Mcl-1 Exp ΔG for various compounds
target: Mcl-1 (Homo sapiens (Human), UniProt Q07820); assay: Fluorescence polarization competition assay (FPCA), Mcl-1 / FITC-Bak BH3 peptide; type: binding; settings: ΔG=−RTlnKi from experimental Ki
Sequence (Q07820 172-327): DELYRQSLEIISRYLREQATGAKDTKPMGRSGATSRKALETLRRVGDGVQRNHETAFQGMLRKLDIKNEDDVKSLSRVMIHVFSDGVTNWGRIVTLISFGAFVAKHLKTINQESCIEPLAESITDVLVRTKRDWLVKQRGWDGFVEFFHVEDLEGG
Kindly provide the numeric value in kcal/mol only, without the unit symbol.

>>> print(df.to_string())
                                   compound  unit_descriptor  numeric_value
0  O=C(O)c1cc(S(=O)(=O)Nc2ccccc2C(F)(F)F)c2ccccc2c1O [3u; TA-1-017]         kcal/mol          -7.35
1  O=C(O)c1cc(S(=O)(=O)Nc2ccc(Cl)cc2)c2ccccc2c1O [3v; 5JC67]         kcal/mol          -7.80
2  COc1ccc(NS(=O)(=O)c2cc(C(=O)O)c(O)c3ccccc23)cc1 [3z; MEL-3-018]         kcal/mol          -6.71
3  Cc1cc(C)cc(Oc2ccc(NS(=O)(=O)c3cc(C(=O)O)c(O)c4ccccc34)cc2)c1 [3bf; SF-5-306]         kcal/mol          -8.93
4  O=C(O)c1cc(S(=O)(=O)Nc2cccc(Br)c2)c2ccccc2c1O [3n; TA-1-020]         kcal/mol          -7.16

Now let's try a different one.
q: I'd like to know its Mcl-1 Exp ΔG. The compound in question is O=C(O)c1cc(S(=O)(=O)NCc2ccccc2)c2ccccc2c1O [3c; SF-5-311]
a: -5.79
